Listing of entries alongside the reported koff.
Biological target: T1, His/Avi-CynoIL18BP (recombinant cynomolgus IL-18BP with His and Avi tags) (cynomolgus monkey)
T1 construct: also called cynomolgus IL-18BP-Avi-His
T1 chain: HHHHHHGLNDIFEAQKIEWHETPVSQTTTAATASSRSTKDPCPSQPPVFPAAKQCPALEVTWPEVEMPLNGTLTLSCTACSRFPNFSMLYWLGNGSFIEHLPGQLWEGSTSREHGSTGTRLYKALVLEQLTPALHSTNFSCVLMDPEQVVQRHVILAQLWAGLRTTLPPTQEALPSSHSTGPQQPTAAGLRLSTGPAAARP
Assay: SPR Biacore T200, IgG captured on Protein A/G

{"BINDER": "anti-IL-18BP antibody variant BP-04.32 (antibody, V domains shown) VH: QVQLVQSGAEVKKPGASVKVSCKASGYTFTDYDMHWVRQAPGQGLEWMGIYSTYYGDVSYAQKFQGRVTMTRDKSTSTVYMELSSLRSEDTAVYYCARSGTYYYGTRESHALDYWGQGTLVTVSS VL: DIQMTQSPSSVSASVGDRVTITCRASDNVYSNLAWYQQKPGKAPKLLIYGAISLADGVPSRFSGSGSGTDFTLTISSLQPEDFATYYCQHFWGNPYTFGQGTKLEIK", "koff": "0.02 s⁻¹"}
{"BINDER": "anti-IL-18BP antibody variant BP-04.07 (antibody, V domains shown) VH: QVQLVQSGAEVKKPGASVKVSCKASGYTFTDYDMHWVRQAPGQGLEWMGIISTYYGVVSYAQKKQGRVTMTRDKSTSTVYMELSSLRSEDTAVYYCARSGTYNYGTRESHALDYWGQGTLVTVSS VL: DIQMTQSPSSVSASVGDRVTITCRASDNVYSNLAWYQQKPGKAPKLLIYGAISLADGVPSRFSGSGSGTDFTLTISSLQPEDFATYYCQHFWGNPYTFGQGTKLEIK", "koff": "0.00076 s⁻¹"}
{"BINDER": "anti-IL-18BP antibody variant BP-04.03 (antibody, V domains shown) VH: QVQLVQSGAEVKKPGASVKVSCKASGYTFTDYDMHWVRQAPGQGLEWMGIISTYYGDVSYAQKFQGRVTMTRDKSTSTVYMELSSLRSENTAVYYCARSGTYYYGTREQHALDYWGQGTLVTVSS VL: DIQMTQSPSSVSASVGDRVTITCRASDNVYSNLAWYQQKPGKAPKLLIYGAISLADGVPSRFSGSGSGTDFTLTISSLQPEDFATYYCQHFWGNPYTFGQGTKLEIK", "koff": "0.0013 s⁻¹"}
